- tgt: FGFR3 (UniProt P22607)
- Sequence (P22607 whole entry, looked up): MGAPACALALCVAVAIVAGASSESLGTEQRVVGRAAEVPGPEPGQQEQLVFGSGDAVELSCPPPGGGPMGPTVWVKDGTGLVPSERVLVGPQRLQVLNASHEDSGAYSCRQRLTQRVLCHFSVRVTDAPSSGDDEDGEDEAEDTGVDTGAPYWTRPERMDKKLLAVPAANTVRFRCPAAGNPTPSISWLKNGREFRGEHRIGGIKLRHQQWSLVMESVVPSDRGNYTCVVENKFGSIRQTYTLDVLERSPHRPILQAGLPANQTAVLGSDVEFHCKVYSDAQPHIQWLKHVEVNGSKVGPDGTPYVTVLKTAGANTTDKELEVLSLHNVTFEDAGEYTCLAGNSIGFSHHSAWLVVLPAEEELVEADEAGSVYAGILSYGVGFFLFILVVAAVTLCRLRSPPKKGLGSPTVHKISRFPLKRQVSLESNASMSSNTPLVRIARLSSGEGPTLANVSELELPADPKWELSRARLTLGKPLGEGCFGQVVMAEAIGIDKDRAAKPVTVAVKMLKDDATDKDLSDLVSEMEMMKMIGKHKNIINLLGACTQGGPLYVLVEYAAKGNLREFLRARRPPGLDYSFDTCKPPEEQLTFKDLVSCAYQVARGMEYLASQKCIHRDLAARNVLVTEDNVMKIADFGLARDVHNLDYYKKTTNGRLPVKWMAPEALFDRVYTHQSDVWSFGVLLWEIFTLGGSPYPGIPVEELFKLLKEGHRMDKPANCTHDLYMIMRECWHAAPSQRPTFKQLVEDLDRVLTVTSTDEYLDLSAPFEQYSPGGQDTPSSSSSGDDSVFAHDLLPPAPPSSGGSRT
- protocol.details: phosphorylation enrichment, bacterial display (enrichment ratio); higher = better substrate or ligand; peptides without Tyr show the background
Grouping by measured phosphorylation enrichment is done with the following cut points: class 1: < 0.6; class 2: ≥ 0.6 and < 0.8; class 3: ≥ 0.8

sequence | qualitative.label
SECCKYKIDNP [OSMR_Y689] | class 1

Problem: # bin lookup: classify CEETFYTMKVN [MASP2_Y401] by its phosphorylation enrichment
Solution: class 3

Problem: # bin lookup: classify EVVGRYSVHNA [MLH1_Y183] by its phosphorylation enrichment
Solution: class 1

====

- Test system: c-Abl (mouse)
- protocol.details: phosphorylation enrichment, bacterial display (enrichment ratio); higher = better substrate or ligand; peptides without Tyr show the background
reported.property: phosphorylation enrichment
// response body must contain only the number

Known phosphorylation enrichment results, listed for orientation:
sequence | phosphorylation enrichment
CTTIHYNFMCD [TP53_Y234_N239D_YF] | 0.768
KLQKFYRKNPD [EHHADH_Y683_Q685K_YF] | 0.549
CTTIHYNFMCH [TP53_Y234_N239H_YF] | 0.543
FVSIVYNDFGE [TSC2_Y1650_S1653F] | 0.725
SWDKRYCEAGF [ITGA2B_Y197] | 0.687
QSKGIYFVQLE [MGAT4B_Y262_YF] | 1.63
ATHSGYRLNDF [CLDN14_Y233_YF] | 0.906
CTTIHYNFMSN [TP53_Y234_C238S_YF] | 0.833

Sure, the documented phosphorylation enrichment for KNKNRYKNVLP [PTPN11_Y279_I282V] is 0.881

====

Each entry below carries its recorded phosphorylation enrichment.
- tgt: FGFR1 (UniProt P11362)
- Sequence (P11362 whole entry, looked up): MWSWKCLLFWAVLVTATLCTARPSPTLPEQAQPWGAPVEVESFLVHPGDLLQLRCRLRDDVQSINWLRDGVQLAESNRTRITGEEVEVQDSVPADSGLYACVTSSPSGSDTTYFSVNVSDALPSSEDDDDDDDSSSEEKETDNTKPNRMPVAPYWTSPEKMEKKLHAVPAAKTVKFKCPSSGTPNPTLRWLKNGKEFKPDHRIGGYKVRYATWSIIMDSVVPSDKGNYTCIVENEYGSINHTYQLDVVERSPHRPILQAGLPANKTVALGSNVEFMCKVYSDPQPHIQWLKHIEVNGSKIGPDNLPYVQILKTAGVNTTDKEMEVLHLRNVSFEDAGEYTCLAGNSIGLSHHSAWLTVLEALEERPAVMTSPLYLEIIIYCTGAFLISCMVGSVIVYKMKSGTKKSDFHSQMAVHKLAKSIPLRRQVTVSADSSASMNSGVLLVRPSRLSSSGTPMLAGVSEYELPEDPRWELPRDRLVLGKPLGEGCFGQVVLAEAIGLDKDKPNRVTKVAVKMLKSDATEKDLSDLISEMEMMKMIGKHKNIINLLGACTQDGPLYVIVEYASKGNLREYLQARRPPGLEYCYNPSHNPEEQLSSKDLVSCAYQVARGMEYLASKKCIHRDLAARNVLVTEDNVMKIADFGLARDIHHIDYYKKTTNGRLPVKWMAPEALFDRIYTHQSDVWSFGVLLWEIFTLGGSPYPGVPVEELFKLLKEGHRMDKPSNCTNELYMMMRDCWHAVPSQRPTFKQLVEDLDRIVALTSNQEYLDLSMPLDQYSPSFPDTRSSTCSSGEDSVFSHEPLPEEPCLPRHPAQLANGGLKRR
- protocol.details: phosphorylation enrichment, bacterial display (enrichment ratio); higher = better substrate or ligand; peptides without Tyr show the background
// response body must contain only the number

Sure, the documented phosphorylation enrichment for SFCFRYRCAAQ [SUMF1_Y344_R349Q_YF] is 0.47

====

Each entry below carries its recorded phosphorylation enrichment.
- System: c-Src
- protocol.details: phosphorylation enrichment, bacterial display (enrichment ratio); higher = better substrate or ligand; peptides without Tyr show the background
// response body must contain only the number

Known phosphorylation enrichment results, listed for orientation:
sequence | phosphorylation enrichment
NGSKGYAYVHF [PABPC5_Y147] | 0.456
MNKNAYHNVTT [ST3GAL6_Y306_A311T] | 0.364
FVSIVYNDFGE [TSC2_Y1650_S1653F] | 0.856
SSDKVCAHQMV [MLH1_Y379_Y379C] | 0.361
ELAINYQEQAS [SLC9A9_Y591] | 0.403

--- query ---
I looked up SSWKLYPRMLR [HAO1_Y50_R46S] and its phosphorylation enrichment for c-Src was 0.366

====

Each entry below carries its recorded SH2 binding enrichment.
- tgt: c-Src SH2
- protocol.details: SH2 binding enrichment of the phosphorylated peptide, bacterial display (enrichment ratio); higher = better substrate or ligand; peptides without Tyr show the background
// response body must contain only the number

sequence | reported.property | numeric.value
TVLEHYRRTHC [MYBPC3_Y1119] | SH2 binding enrichment | 0.713

Sure, the documented SH2 binding enrichment for DSNLIYSQIWS [FCRL3_Y662_P660L] is 0.538

====

Each entry below carries its recorded phosphorylation enrichment.
- Tested on: AncSZ
- protocol.details: phosphorylation enrichment, bacterial display (enrichment ratio); higher = better substrate or ligand; peptides without Tyr show the background

Known phosphorylation enrichment results, listed for orientation:
sequence | phosphorylation enrichment
KGERGYPGTPG [COL4A1_Y348] | 0.384
VLTSTYRGGGG [HBA1_Y141_K140T] | 0.575
VNNLVYENING [FRS2_Y306_K303N] | 1.17

--- query ---
I looked up YSTPPYLLEAA [BRIP1_Y921_S919P] and its phosphorylation enrichment for AncSZ was 1.77
